Entries and their measured activation follow.
Molecular target: Steroidogenic factor 1 (Homo sapiens) (UniProt Q13285)
Sequence (Q13285 whole entry, looked up, the tested form may be a part): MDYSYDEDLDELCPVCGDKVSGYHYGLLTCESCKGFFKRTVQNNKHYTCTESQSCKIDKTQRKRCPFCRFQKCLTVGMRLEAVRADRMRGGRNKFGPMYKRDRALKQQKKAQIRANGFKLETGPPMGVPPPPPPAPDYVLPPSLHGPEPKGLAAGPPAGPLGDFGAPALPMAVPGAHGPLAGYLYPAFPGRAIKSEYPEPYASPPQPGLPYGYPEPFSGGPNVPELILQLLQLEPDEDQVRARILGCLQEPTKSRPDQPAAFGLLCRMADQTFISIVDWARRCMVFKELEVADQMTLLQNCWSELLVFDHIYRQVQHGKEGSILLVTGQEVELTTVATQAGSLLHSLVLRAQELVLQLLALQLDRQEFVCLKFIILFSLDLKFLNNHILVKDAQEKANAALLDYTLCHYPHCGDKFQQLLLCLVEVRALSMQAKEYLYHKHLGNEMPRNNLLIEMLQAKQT
Assay: SF-1 ligand-binding domain transactivation enhancers – cell-based, CHO-K1, Gal4-SF-1 LBD, luciferase luminescence, primary screen (AID 522)
Conditions: CHO-K1 Gal4-SF-1 LBD luciferase reporter; at 10 µM; stronger effect = higher value; % increase over DMSO SF-1-specific signal
About 1,200 (1.8%) of roughly 65,000 compounds were called active. Only a selection was taken, and actives are over-represented in it overall.

# smiles-notation, activation / %
data = [
    ("CCOC(=O)c1nc(-c2ccc3c(c2)OCO3)[nH]c1C", 46.3),
    ("Cc1nc2ccc(C(=O)N3CCSCC3)cc2s1", 0.4),
    ("CCCC(=O)Nc1cccc(-c2cn3ccsc3n2)c1", 45.8),
    ("CCn1c(SCC(=O)Nc2nc3ccc(OC)cc3s2)nnc1-c1ccoc1C", 13.2),
    ("Cc1ccc(S(=O)(=O)NCc2cn3ccsc3n2)c(C)c1", -0.8),
    ("COC(=O)c1ccc(Oc2nc(NC(C)C)nc(SC)n2)cc1", 2.8),
]

* * *

Target: Steroidogenic factor 1 (Homo sapiens) (UniProt Q13285)
Test: SF-1 ligand-binding domain transactivation enhancers – cell-based, CHO-K1, Gal4-SF-1 LBD, luciferase luminescence, primary screen (AID 522)
Conditions: CHO-K1 Gal4-SF-1 LBD luciferase reporter; at 10 µM; % increase over DMSO SF-1-specific signal
Hit rate of the full screen: of about 65,000 compounds, about 1,200 (1.8%) were called active.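 Rule for the calls: active = activation above the mean activation of all tested compounds plus 3 SD (cut at about 50% in these data); inactive = the rest.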 The full list was thinned out, with actives kept by preference.
Outcome codes: class 1 for active, class 0 for inactive

# compound, assigned-class
rows = [
    ("Cc1cc(C)cc(N(CC(=O)NCC2CCCO2)S(=O)(=O)c2c(C)noc2C)c1 (stereo not drawn)", "class 0"),
    ("O=C(Nc1ccc(NC(=O)c2cccs2)cn1)c1ccco1", "class 1"),
    ("COc1cc(C2C(C#N)=C(C)NC3=C2C(=O)CC(C)(C)C3)ccc1O (stereo not drawn)", "class 0"),
    ("CCc1nnc(NC(=O)CSc2nnc(Cc3ccccc3)n2-c2ccc(OC)cc2)s1", "class 0"),
    ("Fc1ccc2nc(Nc3nc4c(s3)CCCC4)sc2c1", "class 1"),
    ("COc1ccccc1NC(=O)CSc1nnc(-c2ccoc2C)n1CCc1ccccc1", "class 0"),
    ("C=C(C)CSc1nc(N)c2c3c(sc2n1)CCC3", "class 1"),
    ("CCc1nnc(NC(=O)C2CCCN2S(=O)(=O)c2ccccc2)s1 (stereo not drawn)", "class 0"),
    ("COc1cc(-c2nc(-c3ccncc3)no2)cc(OC)c1OC", "class 0"),
    ("O=C(NCc1ccco1)c1nc(-c2ccccc2)n(-c2ccccc2)n1", "class 0"),
    ("Cn1nnc2cc(C(=O)NCCC3=CCCCC3)ccc21", "class 1"),
    ("CN(c1ccc(C(=O)NCCC2=CCCCC2)cc1)S(C)(=O)=O", "class 1"),
    ("CC(C)NC(=O)CCCn1c(=S)[nH]c2cc3c(cc2c1=O)OCO3", "class 0"),
    ("CCc1nnc(NC(=O)c2ccc(S(=O)(=O)NC3CCCCC3)cc2)s1", "class 0"),
    ("COc1ccc(-c2nc(-c3ccccc3)no2)c(OC)c1", "class 0"),
    ("CCOC(=O)C1CCN(Cc2coc3ccc(Cl)cc3c2=O)CC1", "class 0"),
    ("CCOC(=O)c1cn(CC(=O)Nc2ccc(C(C)C)cc2)nn1", "class 0"),
    ("COc1ccc(S(=O)(=O)N2CCCC2)c(C)c1C", "class 0"),
    ("O=C(CN1C(=O)NC2(CCCCC2)C1=O)NCCC1=CCCCC1", "class 0"),
    ("COc1ccc(NC(=O)c2cccc(NC(=O)c3ccco3)c2)c(OC)c1", "class 0"),
    ("COc1cccc(N(CC(=O)Nc2cccc(N(C)S(C)(=O)=O)c2)S(C)(=O)=O)c1", "class 0"),
    ("O=C(CCS(=O)(=O)c1ccccc1)Nc1nc2c(s1)CCCC2", "class 0"),
    ("CCOC(=O)c1ccccc1NC(=O)CC1Nc2ccccc2NC1=O (stereo not drawn)", "class 0"),
]

* * *

Target: Steroidogenic factor 1 (Homo sapiens)
Test: SF-1 ligand-binding domain transactivation enhancers – cell-based, CHO-K1, Gal4-SF-1 LBD, luciferase luminescence, primary screen (AID 522)
Settings: CHO-K1 Gal4-SF-1 LBD luciferase reporter; at 10 µM; stronger effect = higher value; % increase over DMSO SF-1-specific signal
About 1,200 (1.8%) of roughly 65,000 compounds were called active. The list comes from a sample in which actives are over-represented; it also holds close analogues and randomly drawn compounds.
activation of -20% or higher: yes (1). Under -20%: no (0).

# smiles-notation, assigned-class
records = [
    ("Cc1ccccc1-c1nnn(CC(=O)c2ccc(S(=O)(=O)N3CCCC3)cc2)n1", "yes (1)"),
    ("COc1cc(N=Cc2c(O)[nH]c3ccccc23)cc(OC)c1OC", "yes (1)"),
    ("CN(Cc1ccccc1)C(=O)CCNC(=O)Cn1cnc2ccccc2c1=O", "yes (1)"),
    ("Cc1nnc(Sc2nc3c(c(=O)[nH]c(=O)n3C)n2Cc2ccccc2)s1", "yes (1)"),
    ("Cc1ccc(F)cc1NC(=O)Cc1nn(C)c(=O)c2ccccc12", "no (0)"),
    ("COc1ccccc1CNC(=O)CCn1c(=O)sc2ccccc21", "no (0)"),
]

* * *

Molecular target: Steroidogenic factor 1 (Homo sapiens) (UniProt Q13285)
Assay: SF-1 ligand-binding domain transactivation enhancers – cell-based, CHO-K1, Gal4-SF-1 LBD, luciferase luminescence, primary screen (AID 522)
Settings: CHO-K1 Gal4-SF-1 LBD luciferase reporter; at 10 µM; stronger effect = higher value; % increase over DMSO SF-1-specific signal
Out of some 65,000 compounds screened, about 1,200 (1.8%) were called active. The list comes from a sample in which actives are over-represented; it also holds close analogues and randomly drawn compounds.
parameter-measured: activation (%)

# compound, output-unit, result-value
data = [
    ("c1ccc(Nc2nc(-c3ccncc3)cs2)nc1", "%", 36.9),
    ("COCCOC(=O)C1=C(C)Nc2nc(C)nn2C1c1ccccc1 (stereo not drawn)", "%", 4.8),
    ("COc1ccc(S(=O)(=O)N2CCN(C(=O)c3cccs3)CC2)cc1OC", "%", -5.5),
    ("C=CCn1c(CC(=O)Nc2cccc(OC)c2)nnc1SCC(=O)NC1CCCCC1", "%", 12.8),
    ("Cc1cc2nc(-c3ccc(NC(=O)c4cccnc4)cc3)oc2cc1C", "%", 54.8),
    ("CCOC(=O)c1sc(/N=C/Nc2nc(C)c(C(=O)OCC)s2)nc1C", "%", -2),
    ("O=C(CSc1nc2[nH]ncc2c(=O)n1-c1ccccc1)N1CCCc2ccccc21", "%", 22.2),
    ("CCCCC(CCC(=O)Nc1ccc(C(=O)OCC)cc1)C(=O)O (stereo not drawn)", "%", -8.4),
    ("CCOC(=O)c1ccc(-c2ccc(C(=O)Nc3cccnc3)o2)cc1", "%", 51.3),
    ("CCOC(=O)c1sc(=S)n2c1[nH]c(=O)c1ccc(C(=O)OC)cc12", "%", -7.4),
    ("CC(C)COC(=O)c1ccc(NC(=O)C2C3C=CC(C3)C2C(=O)O)cc1 (stereo not drawn)", "%", 63.7),
    ("Cc1nc2c(c(=O)n1Cc1ccco1)c1nc3ccccc3nc1n2Cc1ccccc1", "%", -2.3),
    ("O=C(O)C1CCCCC1C(=O)Nc1ccc(Cl)cc1 (stereo not drawn)", "%", -2.8),
    ("CCOc1ccc2nc(NCCNS(=O)(=O)c3ccccc3)c(C#N)cc2c1", "%", 9.2),
    ("CCOC(=O)c1cc(C)sc1NC(=O)C1CCC1", "%", 9.7),
    ("CC(C)(C)c1csc(NC2=NS(=O)(=O)c3ccccc32)n1", "%", 50.5),
    ("Cc1ccccc1N1C(=O)C2ON(c3ccccc3)C(c3ccncc3)C2C1=O (stereo not drawn)", "%", 5.4),
    ("CCC(=O)Nc1cccc(NC(=O)c2cccnc2)c1", "%", -0.4),
    ("CCOc1cccc(C(=O)Nc2cccnc2)c1", "%", 6.8),
    ("Cc1ccsc1-c1nc(CSCC(=O)NCCN2CCCC2)c(C)o1", "%", 3.6),
    ("COc1cc(C2C3C(=O)N(c4ccccc4)C(=O)C3ON2c2ccccc2)ccc1O (stereo not drawn)", "%", 51.7),
    ("CC(C)C[C@H](NC(=O)Nc1cccc(C(F)(F)F)c1)C(=O)O", "%", -1.1),
    ("CC(C)NS(=O)(=O)c1ccc(NC(=O)c2cccnc2)cc1", "%", 33.9),
]
